The origin of these recorded values is the supplement of paper PMC12042874.

- Assay explanation: amyloid nucleation score (Sup35N fusion, yeast selection) (log enrichment); library NNK1; higher = more nucleation; inactive = no reads after selection;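 further: zero at mode of non-aggregating sequences after 7 days selection at 30°C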
just bin them by amyloid nucleation score: lower level (below -0.2), middle level (-0.2 to below 1), upper level (1 or more)

Substance	Answer label
SPGVDGWNPWVDTVLRKVSK	lower level
VLCVFCGNLHMIVLDCAFDA	upper level
FRSTPWNPMSTELVIFSPSV	upper level
SCTFKMMMGSVLL	upper level
SYSDICEVNLDTHKFVLGVR	lower level
FMEVWRYWRFIVSRERFNHI	lower level
GVDSFTDSIEYKVGRRVFRH	upper level
GVMIWRQRWRKVIVGGALRW	lower level
HRIWRLLALNT	lower level
TVWYYSHPS	middle level
MRFAVTD	middle level
RCMFAYLRVMDCNGGNVYPV	middle level

----------
- Assay explanation: amyloid nucleation score (Sup35N fusion, yeast selection) (log enrichment); library NNK3; higher = more nucleation; inactive = no reads after selection

Substance	amyloid nucleation score
IGWGVQFELFGTWRVEIPLV	inactive
IFMITDQ	inactive
AGVVHRWGLQCFSLNFECGC	2.08
SHISWSQYRM	1.58
IAVDFRYCYDYGSNSSCRLA	1.88
VTKVYGDVVLEWRHDVLFGG	0.503
IKWVCTEVRSGCLSVDCVLV	inactive
YFLGECNPRCYLLRGLAAWN	inactive
EICKSLKLCNIWNCRIMLRS	inactive
MSLNNGGSGSCVCPFR	inactive
VLFNSPTRGVHLLQTGSRQS	inactive
FISLWQPPRL	inactive
TWDWGCKVGFRKGKKV	inactive
TLLHLLKLSGLVSKCSTMVL	inactive
TLASQFSFLVS	inactive
GLCPYSIQFFGGRSDHNW	1.24
SNSYHIVVYVRYGHSHG	2.62
VTSTQVMNMLD	inactive
FTLARAMPLGYSQGIMKSRG	inactive
AGVIAWVYSSG	inactive
SIDYADVK	inactive
RPVVWYISRTSVVLDCAWGS	inactive
HVDPCWQKTFTMMLFWVFLR	inactive
FERISRSFAYIDIRHIICMF	1.56
FGINDCVIRV	inactive

----------
Measured amyloid nucleation score, listed per entry.
- Assay explanation: amyloid nucleation score (Sup35N fusion, yeast selection) (log enrichment); library NNK1; higher = more nucleation; inactive = no reads after selection

Substance	amyloid nucleation score
LYNRIANFGPGYINLWVI	6.38
TFVDGGSFSENVVVMIRFYH	4.99
AQTPRLLKVG	-1.01
GSSRKSIVNIRILPSFALAE	-0.272
IFILIRYWHCITSSPDVGFG	-0.246
LLSFLRSAKIQTGR	0.229
RGPLVFYLFTFWLCDRGNVL	0.046
TLYHSI	-0.385
WYAFERFDFHLCVDVVQLTR	1.11
YLRRHQRNLPEQCCEAGINV	-1.37
YLKGVG	0.104
YYYEPLFPRELHSQLYLL	-0.268
TVSMDVLYMIGGCLLCVV	0.209
REANNPCRVNTKSIVVRLEV	-0.787
VMVWLGDREAGLCESELGAG	0.12
FSSCLTMRLV	-0.365
EYSIIYCICH	3.08
CNLSTCSFHFHFLT	4.53
NSWKNADVWCNASMHGWSGW	0.697
NSMLNDCHDKLIIGFSEGWS	0.091
QYVIQAYACTWCRCGKLQSG	7.69
YYLDGTGLWVNCVRMARGCG	1.16
LQLIGYRDNWSGVMFYLERG	0.838
ICNSLMEDDMGASEVMC	0.734
